Data origin, for the record: paper PMC6001238

Entries and their MIC
# Test system: S. aureus VISA/HIP5827
# procedure-summary: MIC, broth microdilution, vancomycin-intermediate S. aureus VISA HIP5827
# Type: cell-based, Staphylococcus aureus
# condition-info: Staphylococcus aureus VISA/HIP5827; read-out: MIC
Answer in µM, number only, no unit symbol.

>  <molecule>
CN[C@H](CC(C)C)C(=O)N[C@H]1C(=O)N[C@@H](CC(N)=O)C(=O)N[C@H]2C(=O)N[C@H]3C(=O)N[C@H](C(=O)N[C@H](C(=O)NCC(=O)Nc4ccc(C)cc4Cl)c4cc(O)cc(O)c4-c4cc3ccc4O)[C@H](O)c3ccc(c(Cl)c3)Oc3cc2cc(c3O[C@@H]2O[C@H](CO)[C@@H](O)[C@H](O)[C@H]2O[C@H]2C[C@](C)(N)[C@H](O)[C@H](C)O2)Oc2ccc(cc2Cl)[C@H]1O [Vanc-2]

>  <system-name>
S. aureus VISA/HIP5827

>  <MIC / µM>
0.78

$$$$

Q) Any idea what its MIC is? The molecule is CNC(CC(C)C)C(=O)NC1C(=O)NC(CC(N)=O)C(=O)NC2C(=O)NC3C(=O)NC(C(=O)NC(C(=O)NCC(=O)NC4c5ccccc5-c5ccccc54)c4cc(O)cc(O)c4-c4cc3ccc4O)C(O)c3ccc(c(Cl)c3)Oc3cc2cc(c3OC2OC(CO)C(O)C(O)C2OC2CC(C)(N)C(O)C(C)O2)Oc2ccc(cc2Cl)C1O (stereo not drawn) [Vanc-90]
A) 0.39

Q) Any idea what its MIC is? The molecule is CN[C@H](CC(C)C)C(=O)N[C@H]1C(=O)N[C@@H](CC(N)=O)C(=O)N[C@H]2C(=O)N[C@H]3C(=O)N[C@H](C(=O)N[C@H](C(=O)NCCNC(=O)CC(c4ccccc4)c4ccccc4)c4cc(O)cc(O)c4-c4cc3ccc4O)[C@H](O)c3ccc(c(Cl)c3)Oc3cc2cc(c3O[C@@H]2O[C@H](CO)[C@@H](O)[C@H](O)[C@H]2O[C@H]2C[C@](C)(N)[C@H](O)[C@H](C)O2)Oc2ccc(cc2Cl)[C@H]1O [Vanc-47]
A) 1.56

###

# System: 24 clinical MRSA isolates
# procedure-summary: MIC against a set of 24 clinical MRSA isolates (range, MIC50, TI)
# Assay type: cell-based, Staphylococcus aureus
# condition-info: median MIC, 24 clinical MRSA isolates; read-out: MIC50
Entries and their MIC50
Answer in µM, number only, no unit symbol.

>  <compound>
CNC(CC(C)C)C(=O)NC1C(=O)NC(CC(N)=O)C(=O)NC2C(=O)NC3C(=O)NC(C(=O)NC(C(=O)NCC(=O)Nc4ccc(-c5ccccc5)cc4)c4cc(O)cc(O)c4-c4cc3ccc4O)C(O)c3ccc(c(Cl)c3)Oc3cc2cc(c3OC2OC(CO)C(O)C(O)C2OC2CC(C)(N)C(O)C(C)O2)Oc2ccc(cc2Cl)C1O (centres unmarked)

>  <reported>
0.20

$$$$
>  <compound>
CNC(CC(C)C)C(=O)NC1C(=O)NC(CC(N)=O)C(=O)NC2C(=O)NC3C(=O)NC(C(=O)NC(C(=O)NCCCNC(=O)c4cc5ccccc5[nH]4)c4cc(O)cc(O)c4-c4cc3ccc4O)C(O)c3ccc(c(Cl)c3)Oc3cc2cc(c3OC2OC(CO)C(O)C(O)C2OC2CC(C)(N)C(O)C(C)O2)Oc2ccc(cc2Cl)C1O (centres unmarked)

>  <reported>
0.20

$$$$
>  <compound>
CN[C@H](CC(C)C)C(=O)N[C@H]1C(=O)N[C@@H](CC(N)=O)C(=O)N[C@H]2C(=O)N[C@H]3C(=O)N[C@H](C(=O)N[C@H](C(=O)NCC(=O)Nc4ccc5c(c4)Cc4ccccc4-5)c4cc(O)cc(O)c4-c4cc3ccc4O)[C@H](O)c3ccc(c(Cl)c3)Oc3cc2cc(c3O[C@@H]2O[C@H](CO)[C@@H](O)[C@H](O)[C@H]2O[C@H]2C[C@](C)(N)[C@H](O)[C@H](C)O2)Oc2ccc(cc2Cl)[C@H]1O

>  <reported>
0.20

$$$$
>  <compound>
CCCCc1ccc(NC(=O)CNC(=O)[C@H]2NC(=O)[C@H]3NC(=O)[C@H](NC(=O)[C@@H]4NC(=O)[C@H](CC(N)=O)NC(=O)[C@H](NC(=O)[C@@H](CC(C)C)NC)[C@H](O)c5ccc(c(Cl)c5)Oc5cc4cc(c5O[C@@H]4O[C@H](CO)[C@@H](O)[C@H](O)[C@H]4O[C@H]4C[C@](C)(N)[C@H](O)[C@H](C)O4)Oc4ccc(cc4Cl)[C@H]3O)c3ccc(O)c(c3)-c3c(O)cc(O)cc32)cc1

>  <reported>
0.39

$$$$

Q) Any idea what its MIC50 is? The compound is CNC(CC(C)C)C(=O)NC1C(=O)NC(CC(N)=O)C(=O)NC2C(=O)NC3C(=O)NC(C(=O)NC(C(=O)NCCCNC(=O)c4ccc5cc(NS(=O)(=O)c6ccc(C(C)C)cc6)ccc5c4)c4cc(O)cc(O)c4-c4cc3ccc4O)C(O)c3ccc(c(Cl)c3)Oc3cc2cc(c3OC2OC(CO)C(O)C(O)C2OC2CC(C)(N)C(O)C(C)O2)Oc2ccc(cc2Cl)C1O (centres unmarked)
A) 0.78

###

# Tested on: human cervix carcinoma (HeLa) cells
# procedure-summary: Cytostatic activity, HeLa cell proliferation
# Format: cell-based
# condition-info: mean ± SD of three experiments; highest concentration tested 250 µM; 4 days; read-out: Toxicity (IC50) HeLa
Entries and their IC50
Answer in µM, number only, no unit symbol.

>  <compound>
CNC(CC(C)C)C(=O)NC1C(=O)NC(CC(N)=O)C(=O)NC2C(=O)NC3C(=O)NC(C(=O)NC(C(=O)NCCNC(=O)C4c5ccccc5-c5ccccc54)c4cc(O)cc(O)c4-c4cc3ccc4O)C(O)c3ccc(c(Cl)c3)Oc3cc2cc(c3OC2OC(CO)C(O)C(O)C2OC2CC(C)(N)C(O)C(C)O2)Oc2ccc(cc2Cl)C1O (stereo not drawn) [Vanc-46]

>  <IC50 / µM>
108

$$$$
>  <compound>
CNC(CC(C)C)C(=O)NC1C(=O)NC(CC(N)=O)C(=O)NC2C(=O)NC3C(=O)NC(C(=O)NC(C(=O)NCC(=O)Nc4ccc(C#CC5CC5)cc4)c4cc(O)cc(O)c4-c4cc3ccc4O)C(O)c3ccc(c(Cl)c3)Oc3cc2cc(c3OC2OC(CO)C(O)C(O)C2OC2CC(C)(N)C(O)C(C)O2)Oc2ccc(cc2Cl)C1O (stereo not drawn) [Vanc-70]

>  <IC50 / µM>
73

$$$$
>  <compound>
CN[C@H](CC(C)C)C(=O)N[C@H]1C(=O)N[C@@H](CC(N)=O)C(=O)N[C@H]2C(=O)N[C@H]3C(=O)N[C@H](C(=O)N[C@H](C(=O)NCC(=O)Nc4c(C)cc(C)cc4C)c4cc(O)cc(O)c4-c4cc3ccc4O)[C@H](O)c3ccc(c(Cl)c3)Oc3cc2cc(c3O[C@@H]2O[C@H](CO)[C@@H](O)[C@H](O)[C@H]2O[C@H]2C[C@](C)(N)[C@H](O)[C@H](C)O2)Oc2ccc(cc2Cl)[C@H]1O [Vanc-9]

>  <IC50 / µM>
83

$$$$

Q) Any idea what its IC50 is? The compound is CNC(CC(C)C)C(=O)NC1C(=O)NC(CC(N)=O)C(=O)NC2C(=O)NC3C(=O)NC(C(=O)NC(C(=O)NCC(=O)Nc4ccc(-c5ccc(Cl)cc5)cc4)c4cc(O)cc(O)c4-c4cc3ccc4O)C(O)c3ccc(c(Cl)c3)Oc3cc2cc(c3OC2OC(CO)C(O)C(O)C2OC2CC(C)(N)C(O)C(C)O2)Oc2ccc(cc2Cl)C1O (stereo not drawn) [Vanc-84]
A) 13

Q) Any idea what its IC50 is? The compound is CNC(CC(C)C)C(=O)NC1C(=O)NC(CC(N)=O)C(=O)NC2C(=O)NC3C(=O)NC(C(=O)NC(C(=O)NCCCNC(=O)c4ccc(-c5ccc(-c6ccccc6)cc5)cc4)c4cc(O)cc(O)c4-c4cc3ccc4O)C(O)c3ccc(c(Cl)c3)Oc3cc2cc(c3OC2OC(CO)C(O)C(O)C2OC2CC(C)(N)C(O)C(C)O2)Oc2ccc(cc2Cl)C1O (stereo not drawn) [Vanc-35]
A) 17

###

Entries and their IC50
# Tested on: human cervix carcinoma (HeLa) cells
# procedure-summary: Cytostatic activity, HeLa cell proliferation
# Format: cell-based
# condition-info: mean ± SD of three experiments; highest concentration tested 250 µM; 4 days; read-out: Toxicity (IC50) HeLa
Answer in µM, number only, no unit symbol.

>  <compound>
CNC(CC(C)C)C(=O)NC1C(=O)NC(CC(N)=O)C(=O)NC2C(=O)NC3C(=O)NC(C(=O)NC(C(=O)NCCCNC(=O)c4nc5ccccc5[nH]4)c4cc(O)cc(O)c4-c4cc3ccc4O)C(O)c3ccc(c(Cl)c3)Oc3cc2cc(c3OC2OC(CO)C(O)C(O)C2OC2CC(C)(N)C(O)C(C)O2)Oc2ccc(cc2Cl)C1O (stereo not drawn) [Vanc-52]

>  <system-name>
human cervix carcinoma (HeLa) cells

>  <readout-unit>
µM

>  <IC50>
104

$$$$
>  <compound>
CN[C@H](CC(C)C)C(=O)N[C@H]1C(=O)N[C@@H](CC(N)=O)C(=O)N[C@H]2C(=O)N[C@H]3C(=O)N[C@H](C(=O)N[C@H](C(=O)NCCNC(=O)/C=C/c4ccc(NS(=O)(=O)c5ccccc5)cc4)c4cc(O)cc(O)c4-c4cc3ccc4O)[C@H](O)c3ccc(c(Cl)c3)Oc3cc2cc(c3O[C@@H]2O[C@H](CO)[C@@H](O)[C@H](O)[C@H]2O[C@H]2C[C@](C)(N)[C@H](O)[C@H](C)O2)Oc2ccc(cc2Cl)[C@H]1O [Vanc-54]

>  <system-name>
human cervix carcinoma (HeLa) cells

>  <readout-unit>
µM

>  <IC50>
54

$$$$
>  <compound>
CNC(CC(C)C)C(=O)NC1C(=O)NC(CC(N)=O)C(=O)NC2C(=O)NC3C(=O)NC(C(=O)NC(C(=O)NCC(=O)Nc4ccc(-c5cn(-c6ccc(C)cc6)nn5)cc4)c4cc(O)cc(O)c4-c4cc3ccc4O)C(O)c3ccc(c(Cl)c3)Oc3cc2cc(c3OC2OC(CO)C(O)C(O)C2OC2CC(C)(N)C(O)C(C)O2)Oc2ccc(cc2Cl)C1O (stereo not drawn) [Vanc-76]

>  <system-name>
human cervix carcinoma (HeLa) cells

>  <readout-unit>
µM

>  <IC50>
17

$$$$

Q) Any idea what its IC50 is? The compound is CNC(CC(C)C)C(=O)NC1C(=O)NC(CC(N)=O)C(=O)NC2C(=O)NC3C(=O)NC(C(=O)NC(C(=O)NCC(=O)NC4c5ccccc5-c5ccccc54)c4cc(O)cc(O)c4-c4cc3ccc4O)C(O)c3ccc(c(Cl)c3)Oc3cc2cc(c3OC2OC(CO)C(O)C(O)C2OC2CC(C)(N)C(O)C(C)O2)Oc2ccc(cc2Cl)C1O (stereo not drawn) [Vanc-90]
A) 127

Q) Any idea what its IC50 is? The compound is CCCCCCn1cc(-c2ccc(NC(=O)CNC(=O)C3NC(=O)C4NC(=O)C(NC(=O)C5NC(=O)C(CC(N)=O)NC(=O)C(NC(=O)C(CC(C)C)NC)C(O)c6ccc(c(Cl)c6)Oc6cc5cc(c6OC5OC(CO)C(O)C(O)C5OC5CC(C)(N)C(O)C(C)O5)Oc5ccc(cc5Cl)C4O)c4ccc(O)c(c4)-c4c(O)cc(O)cc43)cc2)nn1 (stereo not drawn) [Vanc-92]
A) 98
